experiment.summary: Selectivity index, ratio of CC50 for human MT4 cells to EC50 for Human immunodeficiency virus 1 NL4-3 infected in human MT4 cells
Type: toxicity, cell-based
test.context: read-out: Ratio CC50/EC50
selectivity ratio values, listed per item

Some compounds with recorded selectivity ratio:
1) COc1ccc(N(C)C(=O)[C@H](Cc2ccccc2)NC(=O)c2cn(Cc3ccccc3[N+](=O)[O-])nn2)cc1 : > 1.91
2) COc1ccc(N(C)C(=O)[C@H](Cc2ccccc2)NC(=O)c2cn(-c3ccc4c(c3)OCO4)nn2)cc1 : > 1.34

I am curious: what selectivity ratio value has been reported for COc1ccc(N(C)C(=O)[C@H](Cc2ccccc2)NC(=O)c2cn(Cc3ccc4ccccc4c3)nn2)cc1 ?
> 13.3

----------
Reported Kd values follow for various molecules
target.or.system: UniProt Q76129
Sequence (Q76129 whole entry): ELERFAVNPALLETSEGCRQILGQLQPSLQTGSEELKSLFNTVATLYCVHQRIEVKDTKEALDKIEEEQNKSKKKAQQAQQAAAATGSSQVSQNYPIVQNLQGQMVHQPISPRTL
experiment.summary: Binding affinity to HIV1 NL4-3 monomeric capsid protein by surface plasmon resonance
Note to self: number, then unit, no commentary.

1. COc1ccc(N(C)C(=O)[C@H](Cc2ccccc2)NC(=O)c2cn(Cc3ccc4ccccc4c3)nn2)cc1 : 14 µM

We now examine a further molecule.
Which Kd value is on record for COc1ccc(N(C)C(=O)[C@H](Cc2ccccc2)NC(=O)c2cn(C[S+]([O-])c3ccccc3)nn2)cc1 (some centres not stated) ?
12.7 µM

----------
System: Human immunodeficiency virus 1
experiment.summary: Antiviral activity against Human immunodeficiency virus 1 NL4-3 infected in human MT2 cells measured 4 to 5 days post infection by luciferase reporter gene assay
Format: functional, organism-based
test.context: Human immunodeficiency virus 1, NL4-3, MT2
measure: pEC50
# log scale: pEC50 equals minus log10 of the concentration in mol/L

# pEC50 lookup, item COc1ccc(N(C)C(=O)[C@H](Cc2ccccc2)NC(=O)NS(=O)(=O)N2CCCc3ccccc32)cc1
6.96

----------
experiment.summary: Cytotoxicity against human MT2 cells after 4 days by XTT assay
Type: cell-based
measure: CC50 at 96 h

Which CC50 at 96 h is listed for COc1ccc(N(C)C(=O)[C@H](Cc2ccccc2)NC(=O)NS(=O)(=O)N2CCCc3ccccc32)cc1 ?
33.3 µM

----------
System: MT4
experiment.summary: Cytotoxicity against human MT4 cells assessed as reduction in cell viability after 24 hrs by CytoTox-Glo cytotoxicity assay
Type: cell-based
test.context: mt4, 24 h, read-out: CC50
measure: CC50

Take a look at these entries with their results.
1) COc1ccc(N(C)C(=O)[C@H](Cc2ccccc2)NC(=O)c2cn(C3CC(n4cc(C)c(=O)[nH]c4=O)OC3CO)nn2)cc1 (stereo partly specified) : > 16.6 µM
2) COc1ccc(N(C)C(=O)[C@H](Cc2ccccc2)NC(=O)c2cn(Cc3ccc(C#N)cc3)nn2)cc1 : > 21.5 µM
3) COc1ccc(N(C)C(=O)[C@H](Cc2ccccc2)NC(=O)c2cn(-c3ccc4c(c3)OCO4)nn2)cc1 : > 20 µM
4) COc1ccc(N(C)C(=O)[C@H](Cc2ccccc2)NC(=O)c2cn(Cc3ccccc3C)nn2)cc1 : > 20.7 µM
5) COc1ccc(N(C)C(=O)[C@H](Cc2ccccc2)NC(=O)c2cn(Cc3cccc(C#N)c3)nn2)cc1 : > 21.5 µM

Please give the measured CC50 for this compound: COc1ccc(N(C)C(=O)[C@H](Cc2ccccc2)NC(=O)c2cn(Cc3ccc([N+](=O)[O-])cc3)nn2)cc1
> 19.4 µM

Next compound: COc1ccc(N(C)C(=O)[C@H](Cc2ccccc2)NC(=O)c2cn(Cc3ccc(Cl)cc3)nn2)cc1
> 19.8 µM

Okay, and COc1ccc(N(C)C(=O)[C@H](Cc2ccccc2)NC(=O)c2cn(CS(=O)(=O)c3ccccc3)nn2)cc1 ?
> 18.7 µM

Next: COc1ccc(N(C)C(=O)[C@H](Cc2ccccc2)NC(=O)c2cn(Cc3ccccc3[N+](=O)[O-])nn2)cc1
> 19.4 µM

And for Cc1[nH]c2ccccc2c1CC(=O)N[C@@H](Cc1ccccc1)C(=O)N(C)c1ccccc1 ?
> 70.5 µM

COc1ccc(N(C)C(=O)[C@H](Cc2ccccc2)NC(=O)c2cn(Cc3ccccc3C#N)nn2)cc1 ?
> 21.5 µM

Values were extracted from ChEMBL document CHEMBL4265939.
